Cited source for all entries: the supplement of paper PMC13380429

Recorded inhibition of SARS-CoV-2 cytopathic effect, one value per entry.
System: Vero E6 infected with SARS-CoV-2
MEASUREMENT_NOTES: inhibition of SARS-CoV-2 cytopathic effect; higher = more antiviral protection, active = above 15
STATED_CONDITIONS: 10000 nM; 48 h
MEASURE: inhibition of SARS-CoV-2 cytopathic effect (%)

>  <COMPOUND>
Clc1cccc(Cl)c1CSc1nnc(-c2cnccn2)s1

>  <MEASURED_RESULT>
9.5

$$$$
>  <COMPOUND>
O=C(O)c1ccc2c(c1)nc(Nc1cccc(Cl)c1)c1ccncc12

>  <MEASURED_RESULT>
-1.33

$$$$
>  <COMPOUND>
CCOc1ccc(NC(=S)N2CCC(C(O)(c3ccccc3)c3ccccc3)CC2)cc1

>  <MEASURED_RESULT>
-4.05

$$$$
>  <COMPOUND>
C[C@@H](O)[C@H]1C(=O)N2C(C(=O)[O-])=C(SC3Cn4cnc[n+]4C3)[C@H](C)[C@H]12 (stereo partly specified)

>  <MEASURED_RESULT>
-0.14

$$$$
>  <COMPOUND>
CCOC(=O)C1=C[C@@H](OC(CC)CC)[C@H](NC(C)=O)[C@@H](N)C1 [oseltamivir-phosphate]

>  <MEASURED_RESULT>
0.67

$$$$
>  <COMPOUND>
O=C(Nc1ccccc1)N[C@H]1C[C@H](C(=O)O)Nc2cc(Cl)cc(Cl)c21

>  <MEASURED_RESULT>
0.62

$$$$
>  <COMPOUND>
Cc1cccc(/C=N/Nc2cc(N3CCOCC3)n3nc(-c4ccncc4)cc3n2)c1

>  <MEASURED_RESULT>
13.2

$$$$
>  <COMPOUND>
COP(=O)(OC)OC(c1ccc(Cl)cc1)P(=O)(OC)OC (stereo unspecified) [mifobate]

>  <MEASURED_RESULT>
-5

$$$$
>  <COMPOUND>
CC(C)(C)c1ccc(/C=C/C(=O)Nc2ccc3c(c2)OCCO3)cc1

>  <MEASURED_RESULT>
-0.3

$$$$
>  <COMPOUND>
CC1(C)O[C@H]2CC(=O)OC[C@]23[C@H]2CC[C@@]4(C)[C@H](c5ccoc5)OC(=O)[C@H]5O[C@]54[C@]2(C)C(=O)C[C@@H]13

>  <MEASURED_RESULT>
-2.49

$$$$
>  <COMPOUND>
Nc1ncnc2c1ncn2[C@@H]1O[C@H](COP(=O)(O)OP(=O)(O)OP(=O)(O)OP(=O)(O)OC[C@H]2O[C@@H](n3cnc4c(N)ncnc43)[C@H](O)[C@@H]2O)[C@@H](O)[C@H]1O [diadenosine-tetraphosphate]

>  <MEASURED_RESULT>
-1.97

$$$$
>  <COMPOUND>
CC(=O)O[C@]1(C(C)=O)CC[C@H]2[C@@H]3CCC4=CC(=O)CCC4=C3[C@@H](c3ccc(N(C)C)cc3)C[C@@]21C [Ulipristal acetate]

>  <MEASURED_RESULT>
12.9

$$$$
>  <COMPOUND>
Nc1nccc2c1ncn2C1C=C(CO)C(O)C1O (stereo unspecified)

>  <MEASURED_RESULT>
-3.44

$$$$
>  <COMPOUND>
COC[C@H]1OC(=O)c2coc3c2[C@@]1(C)C1=C(C3=O)[C@@H]2CCC(=O)[C@@]2(C)C[C@H]1OC(C)=O

>  <MEASURED_RESULT>
-2.83

$$$$
>  <COMPOUND>
N[C@@H](CS(=O)O)C(=O)O

>  <MEASURED_RESULT>
2.03

$$$$
>  <COMPOUND>
Cc1cnc(Nc2ccc(OCCN3CCCC3)cc2)nc1Nc1cccc(S(=O)(=O)NC(C)(C)C)c1

>  <MEASURED_RESULT>
-18.4

$$$$
